- Study target: Full-length human PRMT6 (Homo sapiens, UniProt Q96LA8)
- Construct: Flag-PRMT6-His was eluted with 200 ug/ml FLAG peptide in the same buffer; made in house; host or cells: HEK 293F cells (BacMam virus, pFastBacMam)
- Sequence (Q96LA8 with tags, fused parts or gaps): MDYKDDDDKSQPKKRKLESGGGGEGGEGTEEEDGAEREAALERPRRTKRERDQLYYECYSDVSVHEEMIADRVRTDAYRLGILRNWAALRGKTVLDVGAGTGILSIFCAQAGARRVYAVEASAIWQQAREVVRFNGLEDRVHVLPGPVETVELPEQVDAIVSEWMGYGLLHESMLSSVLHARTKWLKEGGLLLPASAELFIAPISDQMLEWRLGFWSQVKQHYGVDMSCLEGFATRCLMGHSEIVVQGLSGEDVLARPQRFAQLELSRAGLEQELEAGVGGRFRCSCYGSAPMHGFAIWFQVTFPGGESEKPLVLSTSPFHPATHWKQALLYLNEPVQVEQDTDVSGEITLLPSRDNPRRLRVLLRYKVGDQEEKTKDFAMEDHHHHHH
- Assay details: PRMT6 biochemical assay (3H-SAM Flashplate, peptide substrate)
Below, each of the compounds is paired with its reported IC50 value.

[
  {
    "Compound structure": "Cc1ccc(-c2n[nH]cc2CN(C)CCN)c(Cl)c1",
    "IC50": "< 100 nM"
  },
  {
    "Compound structure": "CNCCN(C)Cc1n[nH]cc1-c1ccc(Oc2ccccc2C(=O)NC)cc1",
    "IC50": "< 100 nM"
  },
  {
    "Compound structure": "CN(CCN)Cc1c[nH]nc1-c1ccc(Oc2ccc(F)cc2)cc1",
    "IC50": "< 100 nM"
  },
  {
    "Compound structure": "CN(CCN)Cc1c(-c2ccc(C#N)cc2)ncn1C",
    "IC50": "1010 to 3000 nM"
  },
  {
    "Compound structure": "CNCCN(C)Cc1c[nH]nc1-c1cccc([N+](=O)[O-])c1",
    "IC50": "< 100 nM"
  },
  {
    "Compound structure": "CNCCN(C)Cc1cnn(C2CC2)c1-c1ccc(F)cc1",
    "IC50": "< 100 nM"
  },
  {
    "Compound structure": "CN(CCN)Cc1c[nH]nc1-c1cccc(N(C)C)c1",
    "IC50": "< 100 nM"
  },
  {
    "Compound structure": "CNCCN(C)Cc1n[nH]cc1-c1ccc(Oc2ccccc2)cc1",
    "IC50": "< 100 nM"
  },
  {
    "Compound structure": "CNCCN(C)Cc1c[nH]nc1-c1cccc(C(C)=O)c1",
    "IC50": "< 100 nM"
  },
  {
    "Compound structure": "CNCCN(C)Cc1c[nH]nc1-c1ccccc1NS(C)(=O)=O",
    "IC50": "3010 to 10000 nM"
  }
]

---

Items are presented alongside their recorded pIC50.
- Study target: Full-length human PRMT1 isoform 1 (Homo sapiens)
- Construct: GST-tagged PRMT1
- Sequence (Q99873 with tags, fused parts or gaps): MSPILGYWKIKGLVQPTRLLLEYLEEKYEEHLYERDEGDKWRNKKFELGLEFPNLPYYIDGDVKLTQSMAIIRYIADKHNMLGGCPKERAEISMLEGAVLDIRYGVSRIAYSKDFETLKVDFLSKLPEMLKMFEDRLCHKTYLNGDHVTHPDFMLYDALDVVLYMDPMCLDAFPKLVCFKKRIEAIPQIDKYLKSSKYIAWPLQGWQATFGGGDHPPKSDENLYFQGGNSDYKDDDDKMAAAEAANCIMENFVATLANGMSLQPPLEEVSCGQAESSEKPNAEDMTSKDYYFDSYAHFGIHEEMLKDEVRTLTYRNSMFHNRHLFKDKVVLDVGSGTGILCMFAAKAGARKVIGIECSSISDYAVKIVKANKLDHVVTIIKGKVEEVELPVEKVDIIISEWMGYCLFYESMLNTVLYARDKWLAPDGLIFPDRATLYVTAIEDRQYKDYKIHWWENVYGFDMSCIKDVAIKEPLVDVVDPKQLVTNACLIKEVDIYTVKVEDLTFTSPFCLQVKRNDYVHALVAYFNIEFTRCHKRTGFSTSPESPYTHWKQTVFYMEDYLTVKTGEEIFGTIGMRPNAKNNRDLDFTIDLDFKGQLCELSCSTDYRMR
- Assay details: PRMT1 biochemical assay (3H-SAM Flashplate, peptide substrate)
pIC50: −log10 of the molar value. Where a name gives a salt, the structure may show the parent alone.

[
  {
    "Molecule": "CN(CCN)Cc1c[nH]nc1-c1cccc(N(C)C)c1 [Compound 149]",
    "pIC50": "> 7.00"
  },
  {
    "Molecule": "CNCCN(C)Cc1cnn(C2CCCC2)c1-c1ccc(OC(C)C)cc1 [Compound 255]",
    "pIC50": "> 7.00"
  },
  {
    "Molecule": "CN(CCN)Cc1nn(C)cc1-c1ccc(C#N)cc1 [Compound 83]",
    "pIC50": "> 7.00"
  },
  {
    "Molecule": "CN(CCN)Cc1c[nH]nc1-c1ccc(OCCN2CCOCC2)cc1 [Compound 172]",
    "pIC50": "6.00 to 7.00"
  },
  {
    "Molecule": "C=CCn1ncc(CN(C)CCNC)c1-c1ccc(OC(C)C)cc1 [Compound 219]",
    "pIC50": "> 7.00"
  },
  {
    "Molecule": "CNCCN(C)Cc1n[nH]cc1-c1ccc(Oc2cccc(C(=O)NC)c2)cc1 [Compound 268]",
    "pIC50": "> 7.00"
  },
  {
    "Molecule": "CNCCN(C)Cc1cn(CCOC)nc1-c1ccc(OC(C)C)cc1 [Compound 253, hydrochloride]",
    "pIC50": "6.00 to 7.00"
  },
  {
    "Molecule": "CNCCN(C)Cc1c[nH]nc1-c1ccc(Oc2ccccc2C(=O)NC)cc1 [Compound 274]",
    "pIC50": "> 7.00"
  },
  {
    "Molecule": "Cc1ccc(-c2n[nH]cc2CN(C)CCN)c(Cl)c1 [Compound 90]",
    "pIC50": "> 7.00"
  },
  {
    "Molecule": "CNCCN(C)Cc1c[nH]nc1-c1ccc(Oc2ccccc2)c(C(=O)N(C)C)c1 [Compound 233]",
    "pIC50": "> 7.00"
  },
  {
    "Molecule": "CC(C)Oc1ccc(-c2c[nH]nc2CN(C)CCN)cc1Cl [Compound 211]",
    "pIC50": "> 7.00"
  },
  {
    "Molecule": "CN(CCN)Cc1cn(CC(O)CO)nc1-c1ccc(F)cc1 (stereo not shown) [Compound 76]",
    "pIC50": "5.00 to 5.52"
  },
  {
    "Molecule": "CNCCN(C)Cc1cnn(C2CCOC2)c1-c1ccc(OC(C)C)cc1 (stereo not shown) [Compound 216]",
    "pIC50": "> 7.00"
  },
  {
    "Molecule": "CNCCN(C)Cc1cnn(C)c1-c1ccc(Oc2ccccc2)cc1 [Compound 208]",
    "pIC50": "> 7.00"
  },
  {
    "Molecule": "CNCCN(C)Cc1n[nH]cc1-c1cc(Cl)c(OC(C)C)c(Cl)c1 [Compound 273]",
    "pIC50": "> 7.00"
  },
  {
    "Molecule": "CN(CCN)Cc1c[nH]nc1-c1ccc(F)c(Cl)c1 [Compound 124]",
    "pIC50": "> 7.00"
  },
  {
    "Molecule": "Cc1cc(Cl)ccc1-c1n[nH]cc1CN(C)CCN [Compound 133]",
    "pIC50": "> 7.00"
  },
  {
    "Molecule": "COc1ccc(-c2n[nH]cc2CN(C)CCN)c(OC)c1 [Compound 87]",
    "pIC50": "6.00 to 7.00"
  },
  {
    "Molecule": "CNCCN(C)Cc1cn(C2CCCCC2)nc1-c1ccc(OC(C)C)cc1 [Compound 256]",
    "pIC50": "6.00 to 7.00"
  }
]

---

- Study target: Full-length human PRMT1 isoform 1 (Homo sapiens)
- Construct: GST-tagged PRMT1
- Assay details: PRMT1 biochemical assay (3H-SAM Flashplate, peptide substrate)
pIC50: −log10 of the molar value.
Measured pIC50 by item

[
  {
    "Compound": "CN(CCN)Cc1cnn(CC2COC2)c1-c1ccc(F)cc1 [Compound 80]",
    "pIC50": "< 5.00"
  },
  {
    "Compound": "CC(C)CN1C(=O)COc2cc(-c3n[nH]cc3CN(C)CCN)ccc21 [Compound 193]",
    "pIC50": "> 7.00"
  },
  {
    "Compound": "CC(C)Oc1cc(-c2n[nH]cc2CN(C)CCN)ccc1F [Compound 188]",
    "pIC50": "6.00 to 7.00"
  },
  {
    "Compound": "CNCCN(C)Cc1cn(Cc2ccccc2)nc1-c1ccc(OC(C)C)cc1 [Compound 217]",
    "pIC50": "> 7.00"
  },
  {
    "Compound": "CN(CCN)Cc1cnn(CC(O)CO)c1-c1ccc(F)cc1 (stereo not shown) [Compound 113]",
    "pIC50": "5.52 to 6.00"
  },
  {
    "Compound": "NCCN(Cc1c[nH]nc1-c1ccc(F)cc1)C1CC1 [Compound 78]",
    "pIC50": "6.00 to 7.00"
  },
  {
    "Compound": "CN(CCN)Cc1cn(C)nc1-c1ccc(F)cc1 [Compound 3]",
    "pIC50": "> 7.00"
  },
  {
    "Compound": "CNCCN(C)Cc1c[nH]nc1-c1ccc(N)cc1 [Compound 33]",
    "pIC50": "6.00 to 7.00"
  },
  {
    "Compound": "CN(CCN)Cc1n[nH]cc1-c1ccc(C(F)(F)F)cc1 [Compound 103]",
    "pIC50": "> 7.00"
  },
  {
    "Compound": "Cc1ccc(F)cc1-c1n[nH]cc1CN(C)CCN [Compound 159]",
    "pIC50": "> 7.00"
  }
]

---

- Study target: UniProt Q86X55
- Sequence (Q86X55 with tags, fused parts or gaps isoform Q86X55-1): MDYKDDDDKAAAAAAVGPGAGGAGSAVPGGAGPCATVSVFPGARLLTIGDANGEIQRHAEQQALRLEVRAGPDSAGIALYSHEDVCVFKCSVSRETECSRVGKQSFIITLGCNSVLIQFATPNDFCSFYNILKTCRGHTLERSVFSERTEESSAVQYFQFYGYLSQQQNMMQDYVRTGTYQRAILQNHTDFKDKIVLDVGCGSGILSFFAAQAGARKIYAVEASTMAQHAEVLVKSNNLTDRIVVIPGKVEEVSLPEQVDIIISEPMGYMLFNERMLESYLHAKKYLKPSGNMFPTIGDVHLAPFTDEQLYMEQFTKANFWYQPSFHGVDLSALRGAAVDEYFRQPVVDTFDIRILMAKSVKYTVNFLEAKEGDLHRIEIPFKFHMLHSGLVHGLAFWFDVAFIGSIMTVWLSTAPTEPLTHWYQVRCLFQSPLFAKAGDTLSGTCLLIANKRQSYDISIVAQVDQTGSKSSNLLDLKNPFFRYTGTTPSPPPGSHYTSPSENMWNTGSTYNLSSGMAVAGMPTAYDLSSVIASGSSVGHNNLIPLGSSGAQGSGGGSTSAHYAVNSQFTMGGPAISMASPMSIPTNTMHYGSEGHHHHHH
Reported values of IC50 for individual entries

[
  {
    "Compound": "CNCCN(C)Cc1c[nH]nc1-c1cccc(NC(C)=O)c1 [Compound 42]",
    "IC50": "1.01 to 3 µM"
  },
  {
    "Compound": "CNCCN(C)Cc1cn(CCCC(O)CO)nc1-c1ccc(F)cc1 (stereo not drawn) [Compound 30]",
    "IC50": "3.01 to 10 µM"
  },
  {
    "Compound": "CNCCN(C)Cc1cnn(C(C)C)c1-c1ccc(F)cc1 [Compound 16]",
    "IC50": "3.01 to 10 µM"
  },
  {
    "Compound": "COc1ccc(-c2n[nH]cc2CN(C)CCN)c(F)c1 [Compound 107]",
    "IC50": "1.01 to 3 µM"
  },
  {
    "Compound": "CCCc1ccc(-c2n[nH]cc2CN(C)CCNC)cc1 [Compound 20]",
    "IC50": "0.101 to 1 µM"
  },
  {
    "Compound": "CN(CCN)Cc1n[nH]cc1-c1ccc(OC(F)F)cc1 [Compound 138]",
    "IC50": "1.01 to 3 µM"
  },
  {
    "Compound": "CNCCN(C)Cc1cn(C2CCCCC2)nc1-c1ccc(OC(C)C)cc1 [Compound 256]",
    "IC50": "0.101 to 1 µM"
  },
  {
    "Compound": "CCn1ncc(CN(C)CCNC)c1-c1ccc(OC(C)C)cc1 [Compound 252]",
    "IC50": "0.101 to 1 µM"
  },
  {
    "Compound": "CNCCN(C)Cc1c[nH]nc1-c1cccc(OC)c1 [Compound 24]",
    "IC50": "1.01 to 3 µM"
  },
  {
    "Compound": "CNCCN(C)Cc1c[nH]nc1-c1ccc(O)cc1 [Compound 27]",
    "IC50": "1.01 to 3 µM"
  },
  {
    "Compound": "CNCCN(C)Cc1c[nH]nc1-c1cccc2ccccc12 [Compound 57]",
    "IC50": "1.01 to 3 µM"
  },
  {
    "Compound": "CN(CCN)Cc1c[nH]nc1-c1ccc(C(F)(F)F)cc1 [Compound 92]",
    "IC50": "0.101 to 1 µM"
  },
  {
    "Compound": "CN(CCN)Cc1c[nH]nc1-c1ccc(Cl)c(F)c1 [Compound 118]",
    "IC50": "0.101 to 1 µM"
  },
  {
    "Compound": "CNCCN(C)Cc1cn(C2CC2)nc1-c1ccc(F)cc1 [Compound 13]",
    "IC50": "1.01 to 3 µM"
  },
  {
    "Compound": "CNCCN(C)Cc1c[nH]nc1-c1cc(F)ccc1F [Compound 50]",
    "IC50": "3.01 to 10 µM"
  },
  {
    "Compound": "COc1ccc(-c2n[nH]cc2CN(C)CCN)c(OC)c1 [Compound 87]",
    "IC50": "3.01 to 10 µM"
  },
  {
    "Compound": "CNCCN(C)Cc1c[nH]nc1-c1ccc(CC#N)cc1 [Compound 34]",
    "IC50": "1.01 to 3 µM"
  },
  {
    "Compound": "CN(CCN)Cc1n[nH]cc1-c1ccc(C(F)(F)F)cc1 [Compound 103]",
    "IC50": "1.01 to 3 µM"
  },
  {
    "Compound": "CCn1cc(CN(C)CCNC)c(-c2ccc(OC(C)C)cc2)n1 [Compound 213]",
    "IC50": "0.101 to 1 µM"
  },
  {
    "Compound": "CN(CCN)Cc1n[nH]cc1-c1ccc(OC2CC2)cc1 [Compound 119]",
    "IC50": "0.101 to 1 µM"
  },
  {
    "Compound": "CNCCN(C)Cc1cn(CC(N)=O)nc1-c1ccc(OC(C)C)cc1 [Compound 251]",
    "IC50": "1.01 to 3 µM"
  }
]
